property: melting point

{"chemical.string": "Clc1ccc(C=Cc2nc(CNc3ccc(CCCCn4ccnn4)cc3)co2)cc1", "property": "melting point", "value.measured": "120 to 122 °C"}
{"chemical.string": "FC(F)Oc1ccc(C=Cc2nc(CNc3ccc(CCCCn4ccnn4)cc3)co2)cc1", "property": "melting point", "value.measured": "101 to 102 °C"}
{"chemical.string": "Fc1ccc(C=Cc2nc(CNc3ccc(CCCCn4ccnn4)cc3)co2)c(C(F)(F)F)c1", "property": "melting point", "value.measured": "109 to 111 °C"}
{"chemical.string": "CN(Cc1coc(C=Cc2ccc(C(F)(F)F)cc2)n1)c1ccc(CCCCn2ccnn2)cc1", "property": "melting point", "value.measured": "112 to 114 °C"}
{"chemical.string": "FC(F)(F)c1ccc(C=Cc2nc(CNc3ccc(OCCCn4ccnn4)cc3)co2)cc1", "property": "melting point", "value.measured": "134 to 136 °C"}
{"chemical.string": "FC(F)(F)Oc1cccc(C=Cc2nc(CNc3ccc(CCCCn4ccnn4)cc3)co2)c1", "property": "melting point", "value.measured": "91 to 93 °C"}
{"chemical.string": "CN(C(=O)c1coc(C=Cc2ccc(C(F)(F)F)cc2)n1)c1ccc(CCCCn2ccnn2)cc1", "property": "melting point", "value.measured": "127 to 129 °C"}
{"chemical.string": "C(=Cc1nc(CNc2ccc(CCCCn3ccnn3)cc2)co1)c1ccc2c(c1)OCO2", "property": "melting point", "value.measured": "130 to 131 °C"}
